Molecular target: CYP2C9 (Homo sapiens)
Sequence (P11712 whole entry): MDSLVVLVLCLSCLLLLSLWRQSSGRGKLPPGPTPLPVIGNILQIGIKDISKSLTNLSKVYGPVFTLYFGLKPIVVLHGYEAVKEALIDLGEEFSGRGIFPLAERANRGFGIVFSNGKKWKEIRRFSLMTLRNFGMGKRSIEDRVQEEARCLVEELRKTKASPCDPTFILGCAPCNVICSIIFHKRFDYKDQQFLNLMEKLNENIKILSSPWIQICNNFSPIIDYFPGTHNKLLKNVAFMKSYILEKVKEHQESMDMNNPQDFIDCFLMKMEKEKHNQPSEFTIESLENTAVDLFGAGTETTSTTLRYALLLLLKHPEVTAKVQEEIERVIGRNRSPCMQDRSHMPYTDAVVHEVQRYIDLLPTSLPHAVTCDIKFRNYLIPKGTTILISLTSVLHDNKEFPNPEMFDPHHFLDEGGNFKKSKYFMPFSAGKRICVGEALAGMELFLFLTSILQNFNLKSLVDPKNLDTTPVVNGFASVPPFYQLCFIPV
pIC50: −log10 of the molar value.
recorded metric: pIC50

Lab note: O=C(NCC(O)(Cn1cncn1)c1ccc(F)cc1F)c1ccc(-c2ccc(OC(F)(F)F)cc2)cc1 (stereo not shown) [Compound 22] gave pIC50 of < 4.60

====

Hi there, I'd appreciate the recorded MIC80 for every entry that follows.
System: Y2721 OE CpCYP51
Assay: MIC80 determination, strain Y2721
Format: cell-based, S. cerevisiae
Conditions: Saccharomyces cerevisiae
Numbers only, in µM.

# molecule, readout unit, MIC80
data = [
    ("O=C(NCC(O)(Cn1cncn1)c1ccc(F)cc1F)c1ccc2cc(F)ccc2c1 (centres unmarked) [Compound 14]", "µM", 0.024),
]

// each listed molecule needs a value for MIC80
1. O=C(NCC(O)(Cn1cncn1)c1ccc(F)cc1F)c1cccc(-c2ccc(C(F)(F)F)cc2)c1 (centres unmarked) [Compound 23]
2. O=C(NCC(O)(Cn1cncn1)c1ccc(F)cc1F)c1cccc(-c2ccc(OC(F)(F)F)cc2)c1 (centres unmarked) [Compound 24]
3. CC[C@@H]([C@H](C)O)n1ncn(-c2ccc(N3CCN(c4ccc(OC[C@@H]5CO[C@@](Cn6cncn6)(c6ccc(F)cc6F)C5)cc4)CC3)cc2)c1=O [PCZ, posaconazole, reference compound]

1: 0.055; 2: 0.094; 3: 0.122

Lab note: O=C(NCC(O)(Cn1cncn1)c1ccc(F)cc1F)c1ccc(-c2ccc(OC(F)(F)F)cc2)cc1 (centres unmarked) [Compound 22] gave MIC80 of 0.099

====

Hi there, I'd appreciate the recorded MIC80 for every entry that follows.
System: Y610 FHB1
Assay: MIC80 determination, C. albicans clinical isolate Y610 FHB1
Type: cell-based
Conditions: Candida albicans; C. albicans clinical isolate Y610 FHB1 (weakly expresses CaCDR1); pH 7, 24 h
Procedure: Cells were seeded at an OD600 nm of 0.005 (1.5 × 10^4 CFU), and the plates were incubated at 30 °C with shaking at 200 rpm for 48 h for S. cerevisiae strains and 24 h for C. albicans . Cell growth was assessed by measuring the OD600 nm using a Synergy 2 multimode plate reader (BioTek Instruments, VT, USA). Each MIC80 was determined using triplicate measurements for pools of 4 clones of each strain in three separate experiments.
Answers are plain numbers, in µM.

Consider the worked cases shown below.
# compound, target, MIC80, µM
data = [
    ("O=C(NCC(O)(Cn1cncn1)c1ccc(F)cc1F)c1cccc(-c2ccc(C(F)(F)F)cc2)c1 (stereo not drawn) [Compound 23]", "Y610 FHB1", 0.4),
    ("O=C(NCC(O)(Cn1cncn1)c1ccc(F)cc1F)c1ccc(-c2ccc(OC(F)(F)F)cc2)cc1 (stereo not drawn) [Compound 22]", "Y610 FHB1", 0.153),
]

// each listed compound needs a value for MIC80
1. O=C(NCC(O)(Cn1cncn1)c1ccc(F)cc1F)c1ccc(NC(=O)c2ccc(Cl)cc2)cc1 (stereo not drawn) [Compound 26]
2. CC[C@@H]([C@H](C)O)n1ncn(-c2ccc(N3CCN(c4ccc(OC[C@@H]5CO[C@@](Cn6cncn6)(c6ccc(F)cc6F)C5)cc4)CC3)cc2)c1=O [PCZ, posaconazole, reference compound]
3. O=C(NCC(O)(Cn1cncn1)c1ccc(F)cc1F)c1cccc(-c2ccc(OC(F)(F)F)cc2)c1 (stereo not drawn) [Compound 24]
4. O=C(NCC(O)(Cn1cncn1)c1ccc(F)cc1F)c1ccc2cc(F)ccc2c1 (stereo not drawn) [Compound 14]

1: 0.95; 2: 0.151; 3: 0.37; 4: 0.075

====

System: Y2411 Endog. ScCYP51
Assay: MIC80 determination, strain Y2411
Assay type: cell-based, S. cerevisiae
Conditions: Saccharomyces cerevisiae; strain Y2411 Endog. ScCYP51; SD pH 6.8, 30 °C, 48 h
recorded metric: MIC80
Provide the measurement as a number trailed by its unit.

Consider the worked cases shown below.
# compound, recorded metric, result
records = [
    ("O=C(NCC(O)(Cn1cncn1)c1ccc(F)cc1F)c1ccc(NC(=O)c2ccc(Cl)cc2)cc1 (stereo not drawn)", "MIC80", "0.039 µM"),
    ("O=C(NCC(O)(Cn1cncn1)c1ccc(F)cc1F)c1cccc(-c2ccc(OC(F)(F)F)cc2)c1 (stereo not drawn)", "MIC80", "0.03 µM"),
]

Would you kindly look at the next entry?
Lab note: O=C(NCC(O)(Cn1cncn1)c1ccc(F)cc1F)c1ccc(-c2ccc(OC(F)(F)F)cc2)cc1 (stereo not drawn) gave MIC80 of 0.03 µM

====

Test system: Y2459 OE CaCYP51 CaCpr
Test: MIC80 determination, strain Y2459
Format: cell-based, S. cerevisiae
Conditions: Saccharomyces cerevisiae, 48 h, pH 6.8
Hi! Could you tag entries with MIC80 below 0.06 µM as 1, and those at or above as -1? Much appreciated.

# molecule, class label
records = [
    ("CC[C@@H]([C@H](C)O)n1ncn(-c2ccc(N3CCN(c4ccc(OC[C@@H]5CO[C@@](Cn6cncn6)(c6ccc(F)cc6F)C5)cc4)CC3)cc2)c1=O [PCZ, posaconazole, reference compound]", -1),
    ("O=C(NCC(O)(Cn1cncn1)c1ccc(F)cc1F)c1cccc(-c2ccc(OC(F)(F)F)cc2)c1 (stereo not drawn)", -1),
    ("O=C(NCC(O)(Cn1cncn1)c1ccc(F)cc1F)c1ccc(-c2ccc(OC(F)(F)F)cc2)cc1 (stereo not drawn)", 1),
    ("O=C(NCC(O)(Cn1cncn1)c1ccc(F)cc1F)c1ccc2cc(F)ccc2c1 (stereo not drawn)", 1),
]

# evaluate next
Record O=C(NCC(O)(Cn1cncn1)c1ccc(F)cc1F)c1ccc(NC(=O)c2ccc(Cl)cc2)cc1 (stereo not drawn) : is its MIC80 strictly below 0.06 µM?
-1

====

Target: CYP2C19 (Homo sapiens)
Sequence (P33261 whole entry): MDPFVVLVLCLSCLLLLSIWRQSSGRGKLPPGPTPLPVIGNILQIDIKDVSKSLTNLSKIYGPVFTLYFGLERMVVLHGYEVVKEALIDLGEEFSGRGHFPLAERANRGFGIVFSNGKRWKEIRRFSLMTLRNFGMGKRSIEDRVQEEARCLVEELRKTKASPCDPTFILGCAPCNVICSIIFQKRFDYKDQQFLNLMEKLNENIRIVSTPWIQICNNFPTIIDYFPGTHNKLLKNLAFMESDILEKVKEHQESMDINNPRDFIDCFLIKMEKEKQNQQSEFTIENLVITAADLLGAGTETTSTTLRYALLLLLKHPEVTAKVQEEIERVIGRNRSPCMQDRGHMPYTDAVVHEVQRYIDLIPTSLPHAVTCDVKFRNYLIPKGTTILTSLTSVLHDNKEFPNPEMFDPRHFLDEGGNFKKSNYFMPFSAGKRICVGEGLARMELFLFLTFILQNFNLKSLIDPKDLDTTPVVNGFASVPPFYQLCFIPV
Experiment: CYP IC50 profile, CYP2C19
Type: biochemical
Settings: human liver drug metabolizing enzyme; read-out: CYP IC50 2C19
recorded metric: IC50 (µM)
One number for each entry, in µM.

Lab note: O=C(NCC(O)(Cn1cncn1)c1ccc(F)cc1F)c1ccc(-c2ccc(OC(F)(F)F)cc2)cc1 (stereo not shown) gave IC50 of 14.5

====

System: Y2716 OE CpCYP51 Y132F
Assay: MIC80 determination, strain Y2716
Type: cell-based, S. cerevisiae
Details: Saccharomyces cerevisiae
recorded metric: MIC80 (µM)
One number for each entry, in µM.

// each listed compound needs a value for MIC80
1. O=C(NCC(O)(Cn1cncn1)c1ccc(F)cc1F)c1cccc(-c2ccc(C(F)(F)F)cc2)c1 (centres unmarked)
2. CC[C@@H]([C@H](C)O)n1ncn(-c2ccc(N3CCN(c4ccc(OC[C@@H]5CO[C@@](Cn6cncn6)(c6ccc(F)cc6F)C5)cc4)CC3)cc2)c1=O [PCZ, posaconazole, reference compound]
3. O=C(NCC(O)(Cn1cncn1)c1ccc(F)cc1F)c1cccc(-c2ccc(OC(F)(F)F)cc2)c1 (centres unmarked)
4. O=C(NCC(O)(Cn1cncn1)c1ccc(F)cc1F)c1ccc(-c2ccc(OC(F)(F)F)cc2)cc1 (centres unmarked)
5. O=C(NCC(O)(Cn1cncn1)c1ccc(F)cc1F)c1ccc2cc(F)ccc2c1 (centres unmarked)

1. 1.91
2. 0.135
3. 1.75
4. 0.21
5. 1

====

Test system: Y2649 OE CYP51 F1 RaCPR
Assay: MIC80 determination, strain Y2649
Assay type: cell-based, S. cerevisiae
Details: Saccharomyces cerevisiae
Procedure: Cells were seeded at an OD600 nm of 0.005 (1.5 × 10^4 CFU), and the plates were incubated at 30 °C with shaking at 200 rpm for 48 h for S. cerevisiae strains and 24 h for C. albicans . Cell growth was assessed by measuring the OD600 nm using a Synergy 2 multimode plate reader (BioTek Instruments, VT, USA). Each MIC80 was determined using triplicate measurements for pools of 4 clones of each strain in three separate experiments.
Hi! Could you tag entries with MIC80 below 0.08 µM as yes (1), and those at or above as no (0)? Much appreciated.

Worked examples, 4 compounds total:
# compound, target, class label
data = [
    ("O=C(NCC(O)(Cn1cncn1)c1ccc(F)cc1F)c1cccc(-c2ccc(OC(F)(F)F)cc2)c1 (centres unmarked)", "Y2649 OE CYP51 F1 RaCPR", "yes (1)"),
    ("O=C(NCC(O)(Cn1cncn1)c1ccc(F)cc1F)c1ccc(-c2ccc(OC(F)(F)F)cc2)cc1 (centres unmarked)", "Y2649 OE CYP51 F1 RaCPR", "no (0)"),
    ("O=C(NCC(O)(Cn1cncn1)c1ccc(F)cc1F)c1cccc(-c2ccc(C(F)(F)F)cc2)c1 (centres unmarked)", "Y2649 OE CYP51 F1 RaCPR", "yes (1)"),
    ("O=C(NCC(O)(Cn1cncn1)c1ccc(F)cc1F)c1ccc2cc(F)ccc2c1 (centres unmarked)", "Y2649 OE CYP51 F1 RaCPR", "no (0)"),
]

Record CC[C@@H]([C@H](C)O)n1ncn(-c2ccc(N3CCN(c4ccc(OC[C@@H]5CO[C@@](Cn6cncn6)(c6ccc(F)cc6F)C5)cc4)CC3)cc2)c1=O [PCZ, posaconazole, reference compound] : is its MIC80 strictly below 0.08 µM?
no (0)

// provenance: paper PMC12169614
